assay: protease stability score; higher = more stable; yeast display proteolysis, trypsin and chymotrypsin;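 note: relative to predicted unfolded state with 0 unfolded-like and 1 meaning tenfold more protease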
Exercise: for every item that follows, state its recorded protease stability score.
// no unit string in output, number only

Quote protease stability score reported for `DEHEDDARRMWELLEHDLQTGDEESIHRLVDPNAKVVYGDKEFVGREVLLRFASEWRVHLMHLDDIKIRTYGDKIDIDTTTITNGEFNGRKHVTRTHLRVHFEKVNGKWYVREVIIEIH` please.
1.31

Quick one: give measured protease stability score for `TEEDEMVHRQTEILEESIVTGDWKTLRNFVDPNMRLEIGDKTVHGWHAMSHILRRIDHINSVELHKVEVYGEKVHVDTIVDGIVDGRRTHLRTHIIALKFNGRWILTSNKIE`
1.03

// Input: `DTVTEMDRHIFEHLLHLWKTGDWKRMTELFDPHARSVFNGRELHGRKSMQEAIEIIVRRADHIELHIRSLDVVDGQIDLDGELILIVGDKKIVHETHIHIHVYNGQVTELSFQIV` . Output its protease stability score only.
0.585

Output protease stability score of `SEHEEKSKEASEQMFQILRTGDWHKWLELLDPHYQLEIGDKRFHGMEISSELLRHLLEELGVERVEVYVKHQETQGDKVINDGSVDINGRELRMILYARKVDGRWVLKSMKVK`
1.39

Note down protease stability score recorded for `DEERKFWHELAELLFHIHLTGDEDMLRHLLDPHVRSDINGVELHGREQAAEHFHKLMKTLGVKHIHHKRMHTIGDKTIIHGESEVDGRILHVHNHFWVVNGKVEEVKMHIE`
0.495

Provide protease stability score value for the following sequence: `DEEQRHAHKIVDRLLELIMTGDEDDLYRLADPNTRIDINGKKFHGMDFWFHLLRRVDHFEVEDFSLKRSDRVDGVAELDHRTTIRVIIGDKTIRLEIRHRMWVVKVDGRWKIEEVVIR`
1.04

---

experiment: protease stability score; higher = more stable; yeast display proteolysis, trypsin and chymotrypsin;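 note: relative to predicted unfolded state with 0 unfolded-like and 1 meaning tenfold more protease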
experimental-readout: protease stability score
The answer should be written as a number, with no unit following it.

Answer with reported protease stability score of `HEEEHVAKEIVEILYHAIITGDEDLIKELMDPNVRLDINGKQVHGRDEWIKELRHLRFRHMKLEVKAVEVVDGRIHSDVILHVDGHFDGRTRRLTIEVHWIIFKINGRWHIQSVEIR`
2.31

Please list protease stability score recorded for the sequence `SEEDKIVHEMMERLLKNWQTGNWEEIEKLFDPNAKLLVDGVELHGREEMSRHWEEKLNQIDHLRIRIRDYRYFDGRLRVEGEEIHYVNGKDITREVEIRLQVINGVVESIEFHRR`
1.42

Recall and state the measured protease stability score for `DEEEKESEEAFRIHKEVLETGDEHLIERMLDPNTRIIIGDKNIHGRESALETMIKLGVKHVHIRRWNDFNGRAENDVQMRFNGRTHEVHLFALKFNGRWLMHEIEFR` .
1.25

# return recorded protease stability score for entry `SEIDRLSEELARLFLELVITGDFKTLSHLADPTVKSDINGVDLHGREELYRWVEEFYNELRVSWVLDSIEVQGEKAYVKGKLESRVDGQRHTDQYEIILIIVNGRFKEIIVKRR`
1.5

Given the sequence `DEENKHLKEIARRFVEDWETGDEDSLKHMLDPHARVVINGVEVHGREEIIKLFREIFHHIRIDHITVNTVITVNGVAHSHIHIRVDINGQERRHNTELIFVFVDGQVSQIKFETE` , write its reported protease stability score.
1.24

Provide one value: measured protease stability score of `DELEKAMRTAVELFRHLIETGDEEFMQRLADPHTQLIVGDKTFHGRDHVVHEWEKFKNVKYRFEDVEFQGDKIILHSTLEFDGRRLETHIQLHKINGRWLLKRVEIK`
1.39

Determine from records and report protease stability score for `DEEEESNRHLAEKFEEHHRTGDWRMMSKMFDPHVRVERIFNGRTVIIHGWEKYVKTVKDEFERIKGARLIIDDMKVQGEKSRVEGTLKINGRTVEVDIHLDIVDGRLRHVRIEIE`
0.201

For the sequence `REEEKFAIHLVRRVVEYLLTGDEDSLKRLADPNTRIHINGVDRHGMEESYKWWKSEIDHLRHHIVITRMRFIDGVIEVDIRLHSDFDGVRFSWNVHLILLVVDGRIKTDKMIVE` , give its reported protease stability score.
1.26

Dear colleague, please send me the reported protease stability score for `HEEETHWRSLTHLFAEWIITGNEDLYMELADPHYLIEIDGKTQHGRENANEVHETFWKDYGFKHRHVRSVRQVGDFVEIEVNLLFNGQRYDMHIHVFVIDGKLKEIHVSLK` when you can.
1.33

State its protease stability score for this sequence: `SEEERVAIEHMRWVIRALLTGDEELLRHLFDPSTRFDFDGQHRIGMEDLVRFWRHLRVRRFEIEDERVHFQGDKIEARTEGRIQGDINGKNVEREIRVILIVMKIDGKWIIRIISHEVD`
1.63

Input `SDEEELYEILLEIELKSAMTGDWRNLKDLLDPDTRIHFNGVEIHGREHAEKHLKRYDVDKIEDVRYRDMRFQGDKARVHGEVRILLQFDGRRMEIDTTIQVINYKVNGVWIIESLHFE` , output reported protease stability score.
1.24

---

experiment: protease stability score; higher = more stable; yeast display proteolysis, trypsin and chymotrypsin;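 note: relative to predicted unfolded state with 0 unfolded-like and 1 meaning tenfold more protease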
Give protease stability score for every item shown.

Specify reported protease stability score for the sequence shown: `SEQEEYLKEYAKHFYEFLLTGDEDWLKRLFDPEARLTVEVGDKTEHLHGREEVSKFWKHLLTEMRIEMTLKDLDSQGEFIVSVTELNINIDGKTIHTRMEIILVVVNGRLREVELRIK`
2.3

Using the record for `DEQNELLDRLSTILLRLLWTGDEDQWLRLADPDMKLDVGNFKTVGRERVIEIFRAWERHIRVERMHLEDTKLQGDFYFSDYRVDGQINGQRTDTRVIYIFVVVNGRMKSIKVIIE` , state its measured protease stability score.
1.34

Hello, please tell me recorded protease stability score for this one: `REEDERDHRISELLFDLWVTGDWEIFHHLADPNVKANINGQETHGREKIMRIMMRMIHEFGFKHIQLEDSTVINGRVHQQIKVRVGDKSEEFNIHHHVVDGKIKHIHIEVR`
1.36

Given the sequence `SEHDKVLRELINLLWEALATGDFDQLHKLLDPHVKLDIGEWHSHGRESFIKNWLDDIRRVKNVRYELRHMDVINGQAHLDIHESYDGVRYDSELIIFIIDGKIHEITVHIR` , write its reported protease stability score.
0.83

Hello, please tell me recorded protease stability score for this one: `DKRDEKMERFLRLMIEFYTTGNEDEFRKLADPDVRTIVGDKHAHGWEESEKVFRILIDHMRIRRIHIEHITVQGNWAHSITRLDGEVNGVRVHVRTEVVIIVYNGRVETIDLRWE`
1.28

Give the measured protease stability score for `SELEEESHKFFREFYRVIETGDEDRLEELADPHVRNDFNGVLIHGREEMRKMREKVHKQLGVTRVEVTVRDMKIQGDKAISHGVFHIGEKDFIVTLISEKINGRWILHSIEVR`
1.2

For the sequence `NEEERENIRIFMMWIEDLVTGNWDRIEHLADPHYRQDVNGRHIHGRDTFAQMVREEMHRIDHHEIKLRHVSVQGNKLRAHVEINLIIGEKRIEKEVIVDLNVINGVLHEVKIVVR` , give its measured protease stability score value.
1.04

Consider the sequence `TELETELEHMVKIVIDSLLTGDEKKLHKQADPHVRHSQGEFEWHTREAMIRFFFELGIDHMTLTEIHLQGDFVEMHIENNINGRRVELRIHWHKFNGKWINRRTHVRHI` . State its measured protease stability score.
0.698

Supply recorded protease stability score for `SEEEHRSELAVELVHYTLMTGDFHLIERLVDPNVKLRILIGDKEYDLHGWKEVYRFMVTFGFDHMELKTFDLQGDKLNIDLRLHVDGRNVETSIVALKVNGKWINESEHYRIK` here.
0.464

Respond only with protease stability score recorded for `SEHEEHVRSAIERLSHAWRTGNEELFKELVDPHTRFIYGNKNMHGWEISEFFRRRVKGMTLHEVDIHHVEVINGRVHVNSILRGEINGKDTFEDHELHARKVDGRWVVTEMTIR`
0.732

Given the sequence `TETERHIEEHLRQMVHQLRTGDFERFEDLADPNMRIDVDGKEFIGREAVDRFWRRVDVIHDLDFKDMEIQGNKVVLNVRIIGNINGVHDHTEQHIVVFKINGRWYWHSIEVH` , write its reported protease stability score.
1.16

---

Could you please report measured protease stability score for the items listed next?
assay: protease stability score; higher = more stable; yeast display proteolysis, trypsin and chymotrypsin;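 note: relative to predicted unfolded state with 0 unfolded-like and 1 meaning tenfold more protease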
Number, no unit, nothing else.

Tell me protease stability score reported for `KEEEDIVRHVVEKFIKNLLTGDFHSLMHMADPNVLVNFNGKENIGRELAVKTIERWWKELGVKHFEHFDLHDITIFDGKASLDTRVHGEINGKVHDFKTRIIIQKINGRWTVHSVEFE`
1.22

For `DEHDQHLKEWLDILLEVISTGDESRLQEMLDPNARLDVNGRKIHGRDEVLRAFHDHLDRFDHLHDLRIEHSNTVDGKAYIEGRDDGVVDGKRVFLRTRYFIITVNGKVHEVKIEID` , write its protease stability score.
1.92

Give me measured protease stability score, please, for this sequence: `DEWHEYNEKLFELWEKANKTGDERLLRLLIDPHARLHFNGKHFHGREEVARLMTELRVDRFEIKRMEIQGEKLTVEGREDVTQGDFRFESNVNIIFLKINGRWSLERQHSE`
0.944

# return recorded protease stability score for entry `EEERERAKDVFELLWDIEKTGDEDTFTKLADPNVRTHVGDKHFHGRELVAKWLVDVLRELRVHDIEIKSETVINGRNIVDGVLDGHINGRTVKMTTEILILVINGRIREIDIRIL`
0.825

Return reported protease stability score. Input sequence: `SEEEEKAVKVTEEILHNLLTGDWERLAEMLDPDTWLHQGDKHRHGREQVLKHFSDFYNEIRIEDFKIHDITVQGEKAISHGHVKMRYGDKVRETSVRFVLIVIDGRIDQIEVHVH`
1.8
